biological target: CD28 (Homo sapiens, UniProt P10747); test: Jurkat/IL2 + CHO/OKT3 +/- PD-L1 reporter assay: PD-L1-dependent CD28 costimulation; assay type: cell-based; parameters: host or cells: Jurkat cells expressing an IL-2-luciferase reporter; conditions: Table E21; Jurkat/IL2 + CHO/OKT3/PD-L1; CD80 Conc 5.0 nM
MEASURE_NAME: Relative Luciferase Units (RLU), CD80 Conc 5.0 nM
Numbers only; they are read as RLU.

For the molecule D46V/M47L/V68M/L85Q (protein) VIHVTKEVKEVATLSCGHNVSVEELAQTRIYWQKEKKMVLTMMSGVLNIWPEYKNRTIFDITNNLSIMILALRPSDEGTYECVVQKYEKDAFKREHLAEVTLSVKAD , what Relative Luciferase Units (RLU), CD80 Conc 5.0 nM is on record?
654

For the molecule E35D/K89N (protein) VIHVTKEVKEVATLSCGHNVSVEELAQTRIYWQKDKKMVLTMMSGDMNIWPEYKNRTIFDITNNLSIVILALRPSDEGTYECVVLKYENDAFKREHLAEVTLSVKAD , what Relative Luciferase Units (RLU), CD80 Conc 5.0 nM is on record?
293

For the molecule E35D/M47V/N48K (protein) VIHVTKEVKEVATLSCGHNVSVEELAQTRIYWQKDKKMVLTMMSGDVKIWPEYKNRTIFDITNNLSIVILALRPSDEGTYECVVLKYEKDAFKREHLAEVTLSVKAD , what Relative Luciferase Units (RLU), CD80 Conc 5.0 nM is on record?
561

Where do these numbers come from? They come from patent US20220177587A1.
